Measurement Notes: CBD nano lipospheres relative oral bioavailability study
Type: in vivo
Condition: male, Wistar, rat, plasma; PO 15 mg/kg CBD, rats
Observable: Cmax
Answer format: value, then unit.

Please report the measured Cmax for `C=C(C)[C@@H]1CCC(C)=C[C@H]1c1c(O)cc(CCCCC)cc1O`
105 ng/mL

----------
Measurement Notes: Talinolol relative oral bioavailability study
Type: in vivo
Condition: male, Wistar, rat, plasma; PO 4 mg/kg talinolol, rats
Observable: half-life (h)
Give the value in h but do not write h after it.

Please report the measured half-life for CC(C)(C)NCC(O)COc1ccc(NC(=O)NC2CCCCC2)cc1 (stereo not shown) [Talinolol, talinolol]
1.15

----------
Measurement Notes: CBD relative oral bioavailability: CBD, CBD-PNL and CBD-PNL with absorption enhancers
Condition: male, Wistar, rat, in vivo; PO CBD 15 mg/kg; Piperine 10 mg/kg, rats; mean ± S.E.M.
Observable: Cmax (ng/mL)
Give the value in ng/mL but do not write ng/mL after it.

Please report the measured Cmax for `C=C(C)[C@@H]1CCC(C)=C[C@H]1c1c(O)cc(CCCCC)cc1O`
39

----------
Measurement Notes: CBD nano lipospheres relative oral bioavailability study
Assay type: in vivo
Condition: male, Wistar, rat, plasma; PO 15 mg/kg CBD, rats
Description: The obtained CBD concentration was 3 mg/mL. […] The control group received (15 mg/kg) CBD solution in propylene glycol/EthOH/water 30/30/40 respectively (1 mg/mL) (n=6).
Observable: AUC (ng·h/mL)
Give the value in ng·h/mL but do not write ng·h/mL after it.

Please report the measured AUC for `C=C(C)[C@@H]1CCC(C)=C[C@H]1c1c(O)cc(CCCCC)cc1O`
259

----------
Measurement Notes: Talinolol relative oral bioavailability study
Type: in vivo
Condition: male, Wistar, rat, plasma; PO 4 mg/kg talinolol, rats
Experimental: The obtained talinolol concentration was 1 mg/mL. […] The control group received 4 mg/kg talinolol dissolved in PEG400:water:ethanol 25:60:15 to obtain 1 mg/mL concentration (n=6).
Observable: Cmax (ng/mL)
Give the value in ng/mL but do not write ng/mL after it.

Please report the measured Cmax for CC(C)(C)NCC(O)COc1ccc(NC(=O)NC2CCCCC2)cc1 (stereo not shown) [Talinolol, talinolol]
5.55

Source of measurements: patent US12161763B2
